System: P. falciparum 3D7 growth, pLDH absorbance
Assay: blood-stage malaria parasite growth potency – strain 3D7, dose response (AID 2305)
pIC50: −log10 of the molar value.
attribute_measured: pIC50

molecule | measured_target | attribute_measured | recorded_value
O=C(Nc1cccc(-c2cccc(-c3ccc(F)cc3)n2)c1)c1ccc([N+](=O)[O-])o1 | P. falciparum 3D7 growth, pLDH absorbance | pIC50 | 6.44
NC(=O)CN1CC=C(c2c[nH]c3ccc(Br)cc23)CC1 | P. falciparum 3D7 growth, pLDH absorbance | pIC50 | 5.96
COc1cc2c(cc1OC)C(C(=O)Nc1ccc(C(F)(F)F)cc1)C(c1cccs1)N(C)C2=O (stereo not drawn) | P. falciparum 3D7 growth, pLDH absorbance | pIC50 | 6.80
